Biological target: T1, HCV Core1-169 (hepatitis C virus (HCV-1), UniProt P26664 1-169)
T1 sequence: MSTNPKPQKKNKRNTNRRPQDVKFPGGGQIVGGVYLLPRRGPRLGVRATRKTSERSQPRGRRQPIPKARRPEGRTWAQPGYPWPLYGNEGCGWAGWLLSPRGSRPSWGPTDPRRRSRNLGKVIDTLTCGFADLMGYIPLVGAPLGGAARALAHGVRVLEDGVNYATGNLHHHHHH
Test: SPR sandwich, capture mAb C11-9
parameter: expected percent binding

Consider the worked cases shown below.
HCV 208B-281 (antibody, V domains shown) VH: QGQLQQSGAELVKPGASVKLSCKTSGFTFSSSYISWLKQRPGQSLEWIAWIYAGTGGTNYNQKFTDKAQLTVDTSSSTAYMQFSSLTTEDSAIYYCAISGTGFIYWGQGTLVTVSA VL: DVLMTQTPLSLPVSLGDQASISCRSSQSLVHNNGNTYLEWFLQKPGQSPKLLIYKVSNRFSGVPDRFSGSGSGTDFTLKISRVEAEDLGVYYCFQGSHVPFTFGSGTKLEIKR    ≤ 1%
HCV 208B-793 (antibody, V domains shown) VH: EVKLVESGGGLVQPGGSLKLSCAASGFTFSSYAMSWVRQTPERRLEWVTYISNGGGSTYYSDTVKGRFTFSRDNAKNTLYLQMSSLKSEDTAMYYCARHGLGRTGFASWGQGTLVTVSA VL: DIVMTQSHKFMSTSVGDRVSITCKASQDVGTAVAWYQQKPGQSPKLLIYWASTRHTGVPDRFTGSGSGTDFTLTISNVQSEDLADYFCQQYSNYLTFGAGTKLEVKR    ≤ 1%
HCV 208B-822 (antibody, V domains shown) VH: QVQLKQSGPGLVQPSQSLSITCTVSGFSLITYGVHWVRQSPGKGLEWLGVIWGGGSTGYNAAFVSRLNITKDNSKSQVFFKMNSLQPDDTAIYYCARNGGATVFDYWGQGTTLTVSS VL: DIVMTQSPATLSVTPGDRVSLSCRASQTISDYLHWYQQKSHESPRLLIKYASQSISGIPSRFSGSGSGSHFTLSINSVEPEDVGVYYCQNGHSFPWTFGGGTKLEIKR    ≤ 1%
HCV 208B-517 (antibody, V domains shown) VH: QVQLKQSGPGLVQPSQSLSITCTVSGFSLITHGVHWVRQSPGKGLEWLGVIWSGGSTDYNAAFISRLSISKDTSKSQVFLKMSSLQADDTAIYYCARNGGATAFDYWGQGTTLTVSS VL: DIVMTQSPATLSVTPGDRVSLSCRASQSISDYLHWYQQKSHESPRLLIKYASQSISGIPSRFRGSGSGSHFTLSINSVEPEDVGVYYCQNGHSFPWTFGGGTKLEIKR    ≤ 1%
HCV 208A-222 (antibody, V domains shown) VH: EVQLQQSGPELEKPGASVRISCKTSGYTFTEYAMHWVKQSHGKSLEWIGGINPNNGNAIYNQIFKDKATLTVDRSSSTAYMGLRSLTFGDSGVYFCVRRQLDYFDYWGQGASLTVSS VL: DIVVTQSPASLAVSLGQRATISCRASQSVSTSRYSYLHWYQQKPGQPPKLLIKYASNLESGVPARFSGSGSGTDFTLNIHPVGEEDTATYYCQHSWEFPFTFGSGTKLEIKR    10.7%

Reported expected percent binding for HCV 208A-210 (antibody, V domains shown) VH: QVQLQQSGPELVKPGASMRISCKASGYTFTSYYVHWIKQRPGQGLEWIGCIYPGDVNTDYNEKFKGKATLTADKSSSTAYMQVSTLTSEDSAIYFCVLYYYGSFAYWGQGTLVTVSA VL: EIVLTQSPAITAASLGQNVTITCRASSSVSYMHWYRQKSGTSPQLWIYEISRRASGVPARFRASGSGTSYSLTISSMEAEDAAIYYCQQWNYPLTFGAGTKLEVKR was ≤ 1%

The value of expected percent binding measured for the binder HCV 208A-159 (antibody, V domains shown) VH: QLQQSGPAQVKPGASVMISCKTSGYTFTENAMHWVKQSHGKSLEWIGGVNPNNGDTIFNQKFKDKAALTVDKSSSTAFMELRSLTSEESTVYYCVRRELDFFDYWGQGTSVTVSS VL: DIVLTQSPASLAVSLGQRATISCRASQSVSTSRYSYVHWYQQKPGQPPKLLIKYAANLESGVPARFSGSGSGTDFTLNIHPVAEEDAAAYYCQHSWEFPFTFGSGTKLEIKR turned out to be 3.3%

Given item HCV 208A-422 (antibody, V domains shown) VH: DVQLQESGPGLVNPSQSLSLTCSVTGYSITSGYYWIWIQQSPGNKLEWMGYIKYDGGNNYSPSLKNRISIARDTSKNQCFLKLNSVTIEDTATYYCTRGSDSFDYWGQGTTLTVSS VL: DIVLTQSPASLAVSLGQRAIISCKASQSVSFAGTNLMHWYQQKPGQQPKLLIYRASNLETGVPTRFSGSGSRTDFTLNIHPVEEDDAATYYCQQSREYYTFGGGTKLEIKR , the value recorded as its expected percent binding is ≤ 1%

Reported expected percent binding for HCV 208A-692 (antibody, V domains shown) VH: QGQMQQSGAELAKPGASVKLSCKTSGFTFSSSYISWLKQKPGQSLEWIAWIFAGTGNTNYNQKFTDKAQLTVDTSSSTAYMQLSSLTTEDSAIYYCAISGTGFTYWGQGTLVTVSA VL: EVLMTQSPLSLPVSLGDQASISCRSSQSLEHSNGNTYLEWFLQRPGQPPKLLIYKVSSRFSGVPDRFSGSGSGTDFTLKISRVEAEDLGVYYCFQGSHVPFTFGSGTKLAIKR was ≤ 1%

Lab note: HCV 208B-178 (antibody, V domains shown) VH: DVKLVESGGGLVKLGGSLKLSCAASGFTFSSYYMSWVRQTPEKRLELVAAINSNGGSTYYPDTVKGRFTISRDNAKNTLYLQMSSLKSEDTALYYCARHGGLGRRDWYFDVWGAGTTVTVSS VL: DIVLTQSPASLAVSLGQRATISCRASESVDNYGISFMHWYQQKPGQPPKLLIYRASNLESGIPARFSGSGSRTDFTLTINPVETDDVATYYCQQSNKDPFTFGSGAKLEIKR gave expected percent binding of ≤ 1%
